System: PPARg:RXRa IVT, anti-PPARg (NR concentration 270 nM, RXRa partner concentration 90 nM)
Assay Notes: PBM binding z-score (relative to random genomic background probes); higher = stronger binding; sequences stand for … in GC…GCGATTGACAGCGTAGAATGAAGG
For each of the sequences below, state its PBM binding z-score.

Here are 4 sequences together with their reported answers.
Record Sequence: GGAACGAGGGCATTCGGGTTGATAGCATGGCGAT
PBM binding z-score: 2.27
//
Record Sequence: CCTATTAGTTGACCATAAGCGCAACCGAAGCTCG
PBM binding z-score: 0.118
//
Record Sequence: GCTATTAGTTGAAAGCGCAACCGAATGATTCTCG
PBM binding z-score: -0.176
//
Record Sequence: TCTATTAGTTGAAGGGCATCCGACGAGTCCGTTT
PBM binding z-score: 0.399

The recorded PBM binding z-score for entry `CCCTACGGGTCACGAGGTTATAGCACGACGAGCG` equals 4.19
